Provenance of the data: PubChem BioAssay AID1688

# Assay overview: qHTS Multiplex Assay to Identify Dual Action Probes in a Cell Model of Huntington: Aggregate Formation (GFP); also: nearly all actives have a fitted effect of over 60% in size
# Measurement conditions: PC12 HttQ103-GFP aggregates, Acumen cytometry, 40 h; series mostly up to 9.22 µM
Among all 220,000 compounds or so, about 2,400 (1.1%) were called active. Roughly 7% stayed inconclusive and do not appear here. Calls follow the shape of the dose curve; as a rule, active = well fitted inhibition curve with a large enough effect; inconclusive = small, poorly fitted or top-dose-only effect, or effect the other way; inactive = no such curve, though single readings can be large or run the other way. The entries come from a sample that favours actives as a whole.
API: response.call in active, inactive

Ask: For CN(Cc1nc(-c2cnccn2)no1)Cc1n[nH]c2c1CCCCC2 , which call appears in the assay record?
Result: inactive

Ask: For O=P(O)(O)OC[C@H](O)CO , which call appears in the assay record?
Result: inactive

Ask: For CCC(=O)Nc1cccc(C2=NOC3(C2)C[C@@H](C(N)=O)N(C(=O)c2cc([N+](=O)[O-])cc([N+](=O)[O-])c2C)C3)c1 (some centres undefined) , which call appears in the assay record?
Result: inactive

Ask: For COc1ccc(CCN2C(=O)CC(N3CCC(C(N)=O)CC3)C2=O)cc1OC (centres undefined) , which call appears in the assay record?
Result: inactive

Ask: For CC(C)OCCCNc1ncnc2c1[nH]c1ccc(F)cc12 , which call appears in the assay record?
Result: active

Ask: For O=C1CCCN1CCCNc1ncnc2c1[nH]c1ccccc12 , which call appears in the assay record?
Result: inactive

Ask: For COc1ccccc1N(C)S(=O)(=O)c1ccc(C(=O)NC2CCCCCC2)cc1 , which call appears in the assay record?
Result: inactive

Ask: For COc1ccc(CS(=O)/C(Cl)=C(/Cl)C(=O)Nc2ccc(OC)nc2)cc1 (centres undefined) , which call appears in the assay record?
Result: active

Ask: For CCOc1cccc(NC(=O)CC#N)c1 , which call appears in the assay record?
Result: active

Ask: For Cn1nccc1CNC(=O)c1ccnn1C , which call appears in the assay record?
Result: inactive

Ask: For CC(=O)c1ccc(NC(=S)NC(=O)CC(C)C)cc1 , which call appears in the assay record?
Result: inactive

Ask: For CCOC(=O)CNC(=O)CSc1nnnn1-c1cc(C)ccc1C , which call appears in the assay record?
Result: inactive

Ask: For COc1ccc(NC(=S)Nc2ccccc2Cl)cn1 , which call appears in the assay record?
Result: inactive

Ask: For Cc1nc(SCC(=O)N2CCc3ccccc3C2)c2c(C)c(C)sc2n1 , which call appears in the assay record?
Result: active

Ask: For COC(c1ccccc1)(c1ccccc1)C(Oc1nc(C)cc(C)n1)C(=O)O (centres undefined) , which call appears in the assay record?
Result: inactive

Ask: For Cc1nc(SCC(=O)N2CC(=O)Nc3ccccc32)c2c(C)c(C)sc2n1 , which call appears in the assay record?
Result: inactive

----------
# Assay overview: qHTS Multiplex Assay to Identify Dual Action Probes in a Cell Model of Huntington: Aggregate Formation (GFP); also: nearly all actives have a fitted effect of over 60% in size
# Measurement conditions: PC12 HttQ103-GFP aggregates, Acumen cytometry, 40 h; series mostly up to 9.22 µM
Hit rate of the full screen: of about 220,000 compounds, about 2,400 (1.1%) were called active. About 7% were inconclusive and are not listed. Calls come from the whole dose curve; as a rule, active = well fitted inhibition curve with a large enough effect; inconclusive = small, poorly fitted or top-dose-only effect, or effect the other way; inactive = no such curve, though single readings can be large or run the other way. The entries come from a sample that favours actives as a whole.
API: response.call in True for active, False for inactive

Examples with answers:
Compound | Qualitative label
COc1ccc(C(=O)NC(=S)NNC(=O)CCc2ccccc2)cc1 | False
CCOC(=O)c1c(C)[nH]c2c1-c1ccccc1C(=O)C2=O | True
O=C(CSc1nc2ccccc2[nH]1)c1cccs1 | False
NS(=O)(=O)c1ccc(Nc2nc(-c3ccccc3)cs2)cc1 | True
O=C(Nc1ccc2ccccc2c1)/C(=C/c1cccc(Br)c1)NC(=O)c1ccco1 | False

Here is the next item to consider.
Ask: For Oc1ccccc1N1CCN(c2ncnc3sc(-c4ccccc4)cc23)CC1 , which call appears in the assay record?
Result: False
